Collected IC50 values appear next to each entry.
System: TGF-β-stimulated SMAD3 phosphorylation in BEAS-2B cells
Assay: Cellular ALK5 potency assay, inhibition of TGF-β stimulated pSMAD3 formation in BEAS-2B cells
Assay type: cell-based
Conditions: Homo sapiens, pSMAD3, TGF-β 10 ng/mL, read-out: BEAS2B pIC50 (converted)
Experimental: The potency of compounds of the present disclosure for inhibition of TGF-β-stimulated SMAD3 phosphorylation was measured in BEAS-2B cells, a human lung epithelial cell line. […] For the assay, BEAS-2B cells were seeded at 7,500 cells/well (25 μL/well) in a 384-well plate and cultured overnight. […] AlphaLISA Acceptor and Detector beads (PerkinElmer) were added 2 hours apart, then incubated overnight to be read the next day. […] Data are expressed as pIC50 (negative decadic logarithm IC50) values.
METRIC NAME: IC50

# MOLECULE, METRIC NAME, OBS VALUE
records = [
    ("Cc1cccc(-c2nccc(Nc3ccnc(Nc4ccc(CN5CCC(C(=O)O[C@H]6CCN(C)C6)C5)cc4)n3)n2)n1 (stereo partly shown) [Compound 161]", "IC50", "≤ 20 nM"),
    ("Cc1cccc(-c2nccc(Nc3ccnc(Nc4ccc(NC5CNC5)cc4)n3)n2)n1 [Compound 199]", "IC50", "25.1 to 158 nM"),
    ("CNCCNS(=O)(=O)c1cccc(Nc2nccc(Nc3ccnc(-c4cccc(C)n4)n3)n2)c1 [Compound 273]", "IC50", "25.1 to 158 nM"),
    ("Cc1cccc(-c2nccc(Nc3ccnc(Nc4ccc(CN5CCN(CCO)CC5)cc4)n3)n2)n1 [Compound 301]", "IC50", "25.1 to 158 nM"),
]

The measurements presented in this section are drawn from patent US20230399312A1.
